The measurements presented in this section are drawn from ChEMBL document CHEMBL1201862.

tested on: CAKI-1; test: NCI tumour cell line growth inhibition, 48 h
Calls of active or inactive are those of the source. Cut-off read from the data, not from the text of the source: active = GI50 up to about 1.1 µM and inactive = higher.
Consider the following compounds; for each one, report its GI50.

Please report the recorded GI50 for `O=c1c(-c2ccccc2)c(SCCCN2CCN(c3cccc(Cl)c3)CC2)n(-c2ccccc2)c(=S)n1-c1ccccc1` .
25.6 µM (inactive)

Please report the recorded GI50 for O=C1C2C3C=CC(C2C(=O)N1CN1CCSCC1)C1C2C(=O)N(CN4CCSCC4)C(=O)C2C31 (stereo not drawn) .
> 100 µM (inactive)

Please report the recorded GI50 for CCCCCCCCCCCCCCCCOCC(CCl)OP(=O)(O)OP(=O)(O)OCC1OC(n2ccc(N)nc2=O)C(O)C1O (stereo not drawn) .
> 100 µM (inactive)

Please report the recorded GI50 for `CCCNC1=Nc2ccccc2N(Cc2ccccc2)CC1` .
21.3 µM (inactive)

Please report the recorded GI50 for CC(=O)OC1C(COC(N)=O)OC(n2c(-c3ccc(C)cc3)cc(-c3ccccc3)c(C#N)c2=O)C(OC(C)=O)C1OC(C)=O (stereo not drawn) .
> 100 µM (inactive)

Please report the recorded GI50 for `COC(=O)c1ccc(OCc2ccc3oc(=O)c(-c4ccccc4)nc3c2)cc1` .
> 100 µM (inactive)

Please report the recorded GI50 for `CCOc1ccc(NC(=O)/C(Cc2nc3ccccc3nc2O)=N\O)cc1` .
> 100 µM (inactive)

Please report the recorded GI50 for `O=C1C(Cl)=C(NCCN2CCOCC2)C(=O)c2c(O)ccc(O)c21` .
1.74 µM (inactive)

Please report the recorded GI50 for `O=c1[nH]nc(NNc2ccccc2)c2nnn(C3CCCCC3)c12` .
> 100 µM (inactive)

Please report the recorded GI50 for CCOc1cc2c(cc1O)C(N)C[C@@H]1[C@@H]2CC[C@]2(C)[C@@H](O)CC[C@@H]12 (stereo partly drawn) .
32.9 µM (inactive)

Please report the recorded GI50 for `COc1ccc(CN[C@H]2CCc3cc(OC)c(OC)c(OC)c3-c3ccc(SC)c(=O)cc32)c(OC)c1OC` .
0.0452 µM (active)

Please report the recorded GI50 for `CCCCCC(=O)OCC(=O)[C@H]1[C@H](C)C[C@H]2[C@@H]3C[C@H](F)C4=C/C(=N/OC(=O)c5cccc6c(=O)c7ccccc7[nH]c56)C=C[C@]4(C)[C@H]3[C@@H](O)C[C@@]21C` .
41.8 µM (inactive)

Please report the recorded GI50 for CC(C)C(NC(=O)C(Cc1ccccc1)NC(=O)[C@H]1CCC[C@H]1NC(=O)C(Cc1ccc(OC(C)(C)C)cc1)NC(=O)OC(C)(C)C)C(N)=O (stereo partly drawn) .
95.9 µM (inactive)

Please report the recorded GI50 for `C=CCNC(=O)NC(=O)CSC1=NC(=O)C2(NN1)c1ccccc1-c1ccccc12` .
> 10 µM (inactive)

Please report the recorded GI50 for `COc1cc2c(cc1OC)CC(=O)Nc1cc(OC)c(OC)cc1CC2` .
68.2 µM (inactive)

Please report the recorded GI50 for `CC(=O)O[C@H]1CC[C@@]2(C)[C@@H](CC[C@@H]3[C@@H]2CC(=O)[C@@]2(C)[C@H]3C[C@@H]3CC(C)=CC(=O)[C@@H]32)C1` .
> 100 µM (inactive)

Please report the recorded GI50 for `CC(C)(C)C(=O)N1CCN(C=O)C1=S` .
34.6 µM (inactive)

Please report the recorded GI50 for `COc1cc2c(NCCN(C)C)nc3c4cc5c(cc4ccc3c2cc1OC)OCO5` .
2.73 µM (inactive)

Please report the recorded GI50 for `C=C1c2nc3ccccc3n2C=C(c2ccc(Cl)cc2)N1c1ccccc1` .
15.7 µM (inactive)

Please report the recorded GI50 for `CCOc1ccc(NC(=O)C2=C(C)NC(C)=C(C(=O)Nc3ccc(OCC)cc3)C2c2ccc(O)c(OC)c2)cc1` .
> 100 µM (inactive)

Please report the recorded GI50 for `Cc1ccc(NC(=O)CC/C(CC(=O)C(C)(C)C)=N/NC(=O)C[N+](C)(C)C)cc1C` .
> 100 µM (inactive)

Please report the recorded GI50 for `COc1cccc(-c2cc(C(=O)Nc3ccc(Cl)cc3)nc(N)n2)c1` .
> 100 µM (inactive)

Please report the recorded GI50 for `CC(C)C(OC(=O)c1cc(NC(=S)c2ccccc2)ccc1Cl)C(C)C` .
17.2 µM (inactive)

Please report the recorded GI50 for `CCOC(=O)C(=Cc1ccc(C(=O)OC)cc1)C(=O)OCC` .
1.67 µM (inactive)

Please report the recorded GI50 for `Cc1cc2c(cc1C)[n+]([O-])c(C(=O)CC(=O)C(=O)Nc1c(C(C)C)cccc1C(C)C)c(C)[n+]2[O-]` .
> 100 µM (inactive)

Please report the recorded GI50 for CC(=O)Nc1ccc(COC(O)CN2CCCCC2)cc1[N+](=O)[O-] (stereo not drawn) .
> 100 µM (inactive)

Please report the recorded GI50 for `Brc1cccc(/C=N/C23CC4CC(CC(C4)C2)C3)c1` .
> 100 µM (inactive)

Please report the recorded GI50 for CNC(C)C(O)c1ccc2oc3cc(=O)c4ccccc4c-3nc2c1 (stereo not drawn) .
16.1 µM (inactive)

====

system: K562; assay: NCI tumour cell line growth inhibition, 48 h
Calls of active or inactive are those of the source. No stated cut-off is given here; in the data, active = GI50 up to about 1.1 µM and inactive = higher.
Consider the following molecules; for each one, report its GI50.

Please report the recorded GI50 for `CCOC(=O)Nc1ccc(S(=O)(=O)Nc2ccc(Br)cc2)cc1` .
17.3 µM (inactive)

Please report the recorded GI50 for `C=CC(=O)Nc1ccccc1CC(c1c[nH]c2ccccc12)c1c[nH]c2ccccc12` .
20.7 µM (inactive)

Please report the recorded GI50 for `CN(C)CCNC(=O)c1cccc2nc3c(ccc4ccccc43)nc12` .
1.52 µM (inactive)

Please report the recorded GI50 for `CCOc1ccc(NC(=O)/C(Cc2nc3ccccc3nc2O)=N\O)cc1` .
> 100 µM (inactive)

Please report the recorded GI50 for `O=c1[nH]c(=S)[nH]c(-c2ccccc2)c1Cc1c(O)ccc2ccccc12` .
31.3 µM (inactive)

Please report the recorded GI50 for `COc1ccc2c(c1)-c1nc(=S)n(CCN(C)C)c3ccc([N+](=O)[O-])c(c13)N2` .
0.389 µM (active)

Please report the recorded GI50 for `O=C(Nc1ccc(Cl)c(Cl)c1)C(=O)Nn1c(S)nc2ccccc2c1=O` .
> 100 µM (inactive)

Please report the recorded GI50 for CC1=C(Oc2ccccc2)C(CCC(=O)O)c2c(O)cc(Cl)c(O)c21 (stereo unspecified) .
> 100 µM (inactive)

Please report the recorded GI50 for `N#CCN(Cc1ccccc1)[C@@H]1CCC[C@]1(O)C#Cc1ccc2c(c1)OCO2` .
20.3 µM (inactive)

Please report the recorded GI50 for `O=c1c2cccc3cccc(c4oc5c6cccc7cccc(c(=O)c5c14)c76)c32` .
> 10 µM (inactive)

Please report the recorded GI50 for CC(C)C(NC(=O)C(Cc1ccccc1)NC(=O)[C@H]1CCC[C@H]1NC(=O)C(Cc1ccc(OC(C)(C)C)cc1)NC(=O)OC(C)(C)C)C(N)=O (stereo partly specified) .
17.8 µM (inactive)

Please report the recorded GI50 for CN(C)CC1CC/C(=C\c2ccc(Cl)c(Cl)c2)C1=O (stereo unspecified) .
5.58 µM (inactive)

Please report the recorded GI50 for `Cc1ccc(-c2cc(=O)c3cc(C)c(C)c(C(=O)O)c3o2)cc1N` .
> 100 µM (inactive)

Please report the recorded GI50 for `Cc1cc(C)nc(NS(=O)(=O)c2ccc(Nc3c4ccccc4nc4c(C(=O)N5CCN(CCOS(C)(=O)=O)CC5)ccc(Cl)c34)cc2)n1` .
> 100 µM (inactive)

Please report the recorded GI50 for `COC(=O)C1=C(C)NC(=O)N2[C@@H](CCOCc3ccccc3)CC[C@@H]12` .
> 50 µM (inactive)

Please report the recorded GI50 for `Nc1c(C(=O)Nc2ccccc2)[n+]([O-])c2ccccc2[n+]1[O-]` .
17.1 µM (inactive)

Please report the recorded GI50 for `N#C/C(=C\c1cc(Br)c(O)c(Br)c1)c1cccnc1` .
23.6 µM (inactive)

Please report the recorded GI50 for `CN(C)CCNC1=C(Cl)C(=O)c2c(O)ccc(O)c2C1=O` .
2.76 µM (inactive)

Please report the recorded GI50 for `COc1cccc(-c2cc(C(=O)Nc3ccc(Cl)cc3)nc(N)n2)c1` .
40.5 µM (inactive)

Please report the recorded GI50 for `O=C(NO)c1ccc(OCc2cccc(Cl)c2)cc1` .
7.96 µM (inactive)

Please report the recorded GI50 for `Oc1ccc[n+](Cc2ccccc2)c1` .
> 100 µM (inactive)

====

Consider the following compounds; for each one, report its GI50.
system: NCI-H460; test: NCI tumour cell line growth inhibition, 48 h
Active and inactive are the calls of the source. No stated cut-off is given here; in the data, active = GI50 up to about 1.1 µM and inactive = higher.

Please report the recorded GI50 for O=C(NCCC(F)(F)C(F)(F)C(F)(F)C(F)(F)F)NC1OC(CO)C(O)C(O)C1O (stereo not drawn) .
> 100 µM (inactive)

Please report the recorded GI50 for `O=C(CCc1ccc(O)c(O)c1)NCCc1cc(O)cc(OCc2ccccc2)c1` .
22.2 µM (inactive)

Please report the recorded GI50 for CNC(C#N)c1ccc(OC)cc1 (stereo not drawn) .
> 100 µM (inactive)
